# System tested: human recombinant CB2R (Homo sapiens, UniProt P34972)
# Sequence (P34972 whole entry): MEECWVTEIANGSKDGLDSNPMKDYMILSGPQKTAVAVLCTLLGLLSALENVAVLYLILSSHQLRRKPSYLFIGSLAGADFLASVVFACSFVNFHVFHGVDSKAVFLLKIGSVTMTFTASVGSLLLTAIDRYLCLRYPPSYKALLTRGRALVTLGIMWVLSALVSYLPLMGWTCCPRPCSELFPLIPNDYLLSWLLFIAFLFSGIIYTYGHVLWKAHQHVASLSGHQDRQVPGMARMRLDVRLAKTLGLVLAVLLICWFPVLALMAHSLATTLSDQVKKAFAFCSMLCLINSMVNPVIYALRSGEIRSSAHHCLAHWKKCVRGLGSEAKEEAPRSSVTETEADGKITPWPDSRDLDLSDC
# Assay procedure: Competitive radioligand binding assay, displacement of [^3H]CP 55,940
Value type: Ki (µM)
Answers are plain numbers, in µM.

{"Compound": "CCCCCc1cc(O)c2c(c1)OC(C)(CCC=C(C)C)C=C2 (stereo not drawn)", "Reading unit": "µM", "Ki": 0.301}

Task item: Would you mind telling me what Ki value was observed for CCCCCc1cc2c3c(c1)OC(C)(C)C1CCC(C)(CC31)O2 (stereo not drawn) [CBT-C, cannabicitran, reference compound] ?
Reply: 4.2
